assayOverview: Toxicological trials: LD50 in mice
measurementConditions: mouse, in vivo, ip; i.p. in mice
parameterMeasured: LD50

QUERY: Please give the measured LD50 for this compound: "N=C(N)NCCC[C@H](N)C(=O)NCC(=O)N[C@@H](CC(=O)O)C(=O)O"
RESULT: > 1000 mg/kg
